Below, IC50 values reported for UniProt P47712 across several publications.
Answers are plain numbers, in nM.

As a guide, the following entries are already answered.
O=C1NC(=O)/C(=C/c2ccc(NC(=O)[C@@H]3C[C@H](NCc4ccccc4)CN3C(=O)Cc3ccc(Br)cc3)cc2)S1 | 21000
O=C(O)c1ccc(OCCc2c(CCNS(=O)(=O)c3ccccc3Br)n(C(c3ccccc3)c3ccccc3)c3ccc(Cl)cc23)cc1 | 530
O=C1NC(=O)/C(=C/c2ccc(C(=O)NC[C@@H]3C[C@@H](OCc4ccccc4-c4ccccc4)CN3C(=O)c3cccc4c3C(=O)c3ccccc3-4)cc2)S1 | 1000

I have 2 molecules here; please give me IC50 for each one.
1. O=C1NC(=O)/C(=C/c2ccc(C(=O)NC[C@@H]3C[C@@H](Oc4ccccc4-c4ccc(-c5ccccc5)cc4)CN3C(=O)c3ccccc3C(=O)c3ccc(F)cc3)cc2)S1
2. O=C1NC(=O)/C(=C/c2ccc(S(=O)(=O)NC[C@@H]3CC(OCc4ccc(F)cc4F)CN3S(=O)(=O)c3ccc(Cc4ccccc4)cc3)cc2)S1 (stereo partly drawn)

[120, 6600]

Dear colleague, could you send me IC50 for each of the items below? Thanks.
1. O=C(O)c1ccc(CCCc2c(CCNS(=O)(=O)C3CC3)n(C(c3ccccc3)c3ccccc3)c3ccc(Cl)cc23)cc1
2. COc1ccc(S(=O)(=O)NCCc2c(CCCc3ccc(C(=O)O)cc3)c3cc(Cl)ccc3n2C(c2ccccc2)c2ccccc2)c2nonc12
3. O=C(O)c1ccc(OCCc2c(CCNS(=O)(=O)CCN3CCN(c4ccccn4)CC3)n(C(c3ccccc3)c3ccccc3)c3ccc(Cl)cc23)cc1
4. O=C(O)c1ccc(CCCc2c(CCNS(=O)(=O)c3cccc(-c4ccccc4)c3)n(C(c3ccccc3)c3ccccc3)c3ccc(Cl)cc23)cc1
5. Nc1ccccc1C(=O)c1ccccc1C(=O)N1C[C@H](OCc2ccccc2-c2ccccc2)C[C@H]1CNC(=O)c1ccc(/C=C2\SC(=O)NC2=O)cc1
6. O=C1NC(=O)/C(=C/c2ccc(C(=O)NC[C@@H]3C[C@@H](OCc4ccccc4-c4cccc(C(F)(F)F)c4)CN3C(=O)c3ccccc3C(=O)c3ccc(F)cc3)cc2)S1
7. CC(=O)N(Cc1ccc(/C=C2\SC(=S)NC2=O)cc1)C[C@@H]1C[C@@H](OCc2ccccc2-c2ccccc2)CN1C(=O)c1ccccc1C(=O)c1ccc(F)cc1

350
400
500
500
460
57
1600
